Test system: IL-12 mRNA
Experiment: IL-12 mRNA in LPS-activated primary murine macrophages
Format: cell-based, mouse
Conditions: 150 nM, +IFN, LPS; average of 3 treatments
In the oligonucleotide strings, read from the 5' end, every base follows the letter of its sugar. An asterisk marks phosphorothioate; unmarked linkages are phosphodiester. Other units and linkages are bracketed, terminal groups are in braces. A string of capitals states the bases alone. e = 2'-O-(2-methoxyethyl) (MOE); [5mC] = 5-methylcytosine; d = 2'-deoxy (DNA)
Entries and their measured IL-12 mRNA expression, % UTC follow.
Express the result in % UTC but write the number alone.

# substance, tgt, test.readout, unit.name, recorded.measurement
rows = [
    ("129690 (antisense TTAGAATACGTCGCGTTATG; sugars from the 5' end e5 d10 e5, all phosphorothioate, methylation of C not given here) [compound 129690]", "IL-12 mRNA", "IL-12 mRNA expression, % UTC", "% UTC", 54),
    ("327941 (antisense eA*eA*e[5mC]*e[5mC]*e[5mC]*eA*e[5mC]*e[5mC]*eG*eA*e[5mC]*eA*eG*e[5mC]*eA*eA*eT*eG*eA*eA*eT*eG*eT*eT) [compound 327941]", "IL-12 mRNA", "IL-12 mRNA expression, % UTC", "% UTC", 2),
    ("342683 (antisense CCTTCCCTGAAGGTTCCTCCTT; scrambled control, further chemistry not given here) [compound 342683]", "IL-12 mRNA", "IL-12 mRNA expression, % UTC", "% UTC", 76),
]

Q. Could you share which IL-12 mRNA expression, % UTC value was measured for 289606 (antisense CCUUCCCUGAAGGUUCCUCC; all 2'-MOE, all C 5-methyl, all phosphorothioate, T or U not given here) [compound 289606] ?
A. 46

Q. Could you share which IL-12 mRNA expression, % UTC value was measured for 327921 (antisense e[5mC]*eT*eT*e[5mC]*e[5mC]*eA*eG*eT*e[5mC]*eG*eG*eG*eG*eA*eT*eG*eT*eT*eT*eA*e[5mC]*eA) [compound 327921] ?
A. 7

Q. Could you share which IL-12 mRNA expression, % UTC value was measured for 229927 (antisense e[5mC]*e[5mC]*eA*e[5mC]*eA*dT*dT*dG*dA*dG*dT*dT*dT*d[5mC]*dT*eT*eT*eA*eA*eG) [compound 229927] ?
A. 35

Measured values drawn from patent US8178506B2 for this set.
